Tested on: house flies
EXPERIMENT: Campbell's turn table oil spray test on house fly adults (Experimental Example 1)
Type: in vivo
MEASUREMENT_CONTEXT: Musca domestica, 24 h, oil spray 5 ml, 10 min exposure, mortality after 1 day, read-out: LC50 (50 percent lethal concentration)
From the text: The present compounds (1), (4), (8), (10), (14), (15), (20), (22), (32), (36), (38), (41), (44), (48), (50), (51), (52), (53), (61), (66), (68), (72), (73), (78), (80), (81), (90), (93) and (96), and chrysanthemic acid esters and pyrethric acid esters corresponding thereto were individually formulated by use of deodorized kerosene into oil sprays of various test concentrations. […]
MEASURED_PROPERTY: LC50 (µg/mL)
Give bare numbers, in µg/mL.

The examples below pair each entry with its known result.
C#CCc1ccc(C(C#C)OC(=O)C2C(C=CC=C)C2(C)C)o1 (stereo not shown)    82
C=CC=CC1C(C(=O)OCc2c(C)cc(CC=C)cc2C)C1(C)C (stereo not shown)    230
C=CC(C)=CC1C(C(=O)OCc2cccc(Oc3ccccc3)c2)C1(C)C (stereo not shown)    68

Consider the record given below.
-- ask May I ask what LC50 has been recorded for CC(C)=CC1C(C(=O)OCc2cc3c(o2)CCCC3)C1(C)C (stereo not shown) [reference compound] ?
-- reply 160

* * *

Test system: house flies
EXPERIMENT: Campbell's turn table oil spray test on house fly adults (Experimental Example 1)
Type: in vivo
MEASUREMENT_CONTEXT: Musca domestica, 24 h, oil spray 5 ml, 10 min exposure, mortality after 1 day, read-out: LC50 (50 percent lethal concentration)
Description: The present compounds (1), (4), (8), (10), (14), (15), (20), (22), (32), (36), (38), (41), (44), (48), (50), (51), (52), (53), (61), (66), (68), (72), (73), (78), (80), (81), (90), (93) and (96), and chrysanthemic acid esters and pyrethric acid esters corresponding thereto were individually formulated by use of deodorized kerosene into oil sprays of various test concentrations. […]
Threshold check on LC50: strictly below 100 µg/mL is true; on or above 100 µg/mL is false.

Consider the following illustrative entries.
CC(C)=CC1C(C(=O)OC(C#N)c2cccc(Oc3ccccc3)c2)C1(C)C (stereo not drawn) [3-Phenoxy-α-cyanobenzyl chrysanthemate, reference compound]    true
C=CC(C)=CC1C(C(=O)OC(C#N)c2cccc(Oc3ccccc3)c2)C1(C)C (centres unmarked)    true
CC(C)=CC1C(C(=O)OCC=C(Cl)Cc2ccccc2)C1(C)C (centres unmarked) [reference compound]    false
C=CC=CC1C(C(=O)OC(C#N)c2cccc(Oc3ccccc3)c2)C1(C)C (centres unmarked)    true
CC(C)=CC(C)=CC1C(C(=O)OCc2cccc(Oc3ccccc3)c2)C1(C)C (centres unmarked)    false
CC(C)=CC(C)=CC1C(C(=O)OCc2coc(Cc3ccccc3)c2)C1(C)C (centres unmarked)    true
C#CCc1ccc(COC(=O)C2C(C=CC=C)C2(C)C)cc1 (centres unmarked)    false
C=CC=CC1C(C(=O)OCc2cccc(Oc3ccccc3)c2)C1(C)C (centres unmarked)    true

-- ask Quick check: does C=CC=CC1C(C(=O)OC2CC(=O)C(CC=C)=C2C)C1(C)C (centres unmarked) have LC50 under 100 µg/mL?
-- reply false

-- ask Quick check: does C=CC(C)=CC1C(C(=O)OCc2cc3c(o2)CCCC3)C1(C)C (centres unmarked) have LC50 under 100 µg/mL?
-- reply false
